- test: Primary qHTS for delayed death inhibitors of the malarial parasite plastid, 48 hour incubation
- test_parameters: P. falciparum luciferase growth in erythrocytes; series mostly up to 28.7 µM
The whole screen tested about 310,000 compounds, of which about 18,000 (5.8%) were called active. Not shown: some 22% with an inconclusive outcome. Calls follow the shape of the dose curve; as a rule, active = well fitted inhibition curve with a large enough effect; inconclusive = small, poorly fitted or top-dose-only effect, or another doubt; inactive = no such curve, though single readings can be large or run the other way. The list comes from a sample in which actives are over-represented; it also holds close analogues and randomly drawn compounds.
I would appreciate it if you answered using one of these outcomes: YES = active, NO = inactive

Here's what some known entries look like.
compound: COc1cc(SC#N)ccc1N=Cc1c(C)[nH]n(-c2ccc(C)cc2)c1=O
discrete_label: YES
--
compound: CN(C)CC/C=C1\c2ccccc2CSc2ccccc21
discrete_label: YES
--
compound: CCc1nnc(NS(=O)(=O)c2ccc(N=Cc3c(C)[nH]n(-c4ccc(C)cc4)c3=O)cc2)s1
discrete_label: NO
--
compound: Cc1ccc(-n2[nH]c(C)c(/C=N/N3C(=O)c4cccc5cccc(c45)C3=O)c2=O)cc1
discrete_label: NO

// outcome(item) with item = CN(C)Cc1ccccc1C1(O)c2ccccc2CSc2ccccc21 (stereo not given) NO

----------
- test: Primary qHTS for delayed death inhibitors of the malarial parasite plastid, 48 hour incubation
- test_parameters: P. falciparum luciferase growth in erythrocytes; series mostly up to 28.7 µM
About 18,000 (5.8%) of roughly 310,000 compounds were called active. Roughly 22% stayed inconclusive and do not appear here. The call rests on the fitted dose curve; in most records, active means well fitted inhibition curve with a large enough effect; inconclusive means small, poorly fitted or top-dose-only effect, or another doubt; inactive means no such curve, though single readings can be large or run the other way. The list comes from a sample in which actives are over-represented; it also holds close analogues and randomly drawn compounds.
Hi! Could you answer with just one of these? True = active, False = inactive

# count of solved cases: 5
molecule: COc1ccc(N(C(=O)c2cccnc2)S(=O)(=O)c2ccc(OC)c(OC)c2)cc1
discrete_label: False

molecule: O=C(Nc1ccccc1C(=O)N1CCCCC1)c1ccco1
discrete_label: False

molecule: CCN(CC)c1ccc(NC(=O)CN2C(=O)NC3(CCc4ccccc43)C2=O)cc1 (configuration not stated)
discrete_label: False

molecule: Cc1cc(C)cc(C(=O)N(CCc2ccccc2)C2=CC3CCC(C2)N3C)c1 (configuration not stated)
discrete_label: True

molecule: CC(C)C(=O)Nc1cccc(NC(=S)NC(=O)C(c2ccccc2)c2ccccc2)c1
discrete_label: True

For this molecule, state the assay outcome: COc1ccccc1NC(=S)NC(=O)C(C)C False

Hi, sorry to bother you, what did the test record for Cc1ccc(C)c(N2CCN(C(=O)CCCCn3c(=O)[nH]c4ccccc4c3=O)CC2)c1 ? False

Identify the outcome logged in this assay for the molecule shown: O=C(CSc1nnc(-c2cccs2)n1Cc1ccccc1)N1CCc2ccccc2C1 True

Dear colleague, could you share the recorded outcome for Cc1ccc(Cc2cnc(NC(=O)/C(C#N)=C/c3ccc(-c4cccc([N+](=O)[O-])c4)o3)s2)cc1 when you have a moment? False

Tell me the recorded outcome of this test for Cc1ccc(C)c(N2CCN(C(=O)CCCCCn3c(=S)[nH]c4ccc(N5CCOCC5)cc4c3=O)CC2)c1 . True

# outcome recorded in this test, key = Cc1ccc(CCN2CC(C(=O)NCCc3ccccc3)CC2=O)cc1 (configuration not stated) False

Recorded test outcome, item Cn1c(SCC(=O)N2CCCC2)nnc1-c1cccs1 False

What outcome does the record of this test show for CS/C(=C\C(=O)c1ccco1)Nc1ccccc1Cl ? True

Look up the recorded call for O=C(NCCCN1CCOCC1)c1ccc([N+](=O)[O-])cc1[N+](=O)[O-] in this test. False

Hi, do you know how Cc1ccc(C)c(N2CCN(C(=O)CCc3nc4ccccc4[nH]3)CC2)c1 came out in this test? False

Recorded call for COc1ccc(CCNS(=O)(=O)c2cc3c(cc2C)NC(=O)CO3)cc1OC ? False

Please share the test call associated with COc1ccc(C(=O)O)cc1S(=O)(=O)NCc1cccnc1 . False

// outcome(item) with item = CCCOc1ccc(Cc2c(O)nc(SC)[nH]c2=O)cc1C False

# lookup: test call for Cc1c(O)c(C)c2c(c1O)C(=O)C[C@@H](c1ccccc1)O2 True

// return assay outcome for Cc1cccc(C)c1NC(=O)N1CC(C)OC(C)C1 (configuration not stated) False

Per the records of this test, what outcome belongs to COc1ccc(NC(=O)N2CCCC2C(=O)NCc2ccccc2Cl)cc1 (configuration not stated) ? False

// param item: COc1ccc(S(=O)(=O)NCC(=O)NC2CC2)cc1OC ; yields the recorded call False

----------
- test: Primary qHTS for delayed death inhibitors of the malarial parasite plastid, 48 hour incubation
- test_parameters: P. falciparum luciferase growth in erythrocytes; series mostly up to 28.7 µM
The whole screen tested about 310,000 compounds, of which about 18,000 (5.8%) were called active. Roughly 22% stayed inconclusive and do not appear here. Calls follow the shape of the dose curve; as a rule, active = well fitted inhibition curve with a large enough effect; inconclusive = small, poorly fitted or top-dose-only effect, or another doubt; inactive = no such curve, though single readings can be large or run the other way. The sample holds actives, similar compounds and a random draw of the others, so the mix is not that of the screen.
Could you please pick one outcome from this set? 1 (active), 0 (inactive)

Answered examples (2):
molecule: CCOC(=O)c1c(-c2ccccc2)oc2ccc(OCC(N)=O)cc12
discrete_label: 0
--
molecule: CCc1cc2c(NC(Cc3ccccc3)C(=O)O)ncnc2s1 (stereo not given)
discrete_label: 0

Which result was noted for this molecule in the test: CCOC(=O)c1c(-c2ccccc2)oc2cc(Br)c(O)c(C=O)c12 1

Which result was noted for this molecule in the test: COCCNC(=O)C(c1ccc(C)o1)N(Cc1ccccc1)C(=O)Cn1nnc2ccccc21 (stereo not given) 0

Give the logged outcome of this assay for the following molecule: O=C(NCc1ccco1)C(c1ccncc1)N(C(=O)Cn1nnc2ccccc21)c1ccccc1 (stereo not given) 0

----------
- test: Primary qHTS for delayed death inhibitors of the malarial parasite plastid, 48 hour incubation
- test_parameters: P. falciparum luciferase growth in erythrocytes; series mostly up to 28.7 µM
The campaign covered roughly 310,000 compounds. About 18,000 (5.8%) were called active. Another 22% or so got no clear call; they are omitted. The call rests on the fitted dose curve; in most records, active means well fitted inhibition curve with a large enough effect; inconclusive means small, poorly fitted or top-dose-only effect, or another doubt; inactive means no such curve, though single readings can be large or run the other way. The sample holds actives, similar compounds and a random draw of the others, so the mix is not that of the screen.
A correct response names exactly one class from class 1 = active, class 0 = inactive

Solved cases (5 shown):
molecule: Cc1c(OC(C)C(=O)NCC2CCC(C(=O)O)CC2)ccc2c1oc(=O)c1ccccc12 (stereo unspecified)
discrete_label: class 0
--
molecule: O=C(Nc1c2c(nn1-c1cccc(Cl)c1)CS(=O)(=O)C2)c1cccs1
discrete_label: class 0
--
molecule: C/C(=N\NC(N)=S)c1ccncc1
discrete_label: class 1
--
molecule: C/C(=N\NC(N)=S)c1cccnc1
discrete_label: class 0
--
molecule: C/C(=N/NC(=O)c1ccn(C)n1)c1ccncc1
discrete_label: class 0

// outcome(item) with item = CN(CC(=O)Nc1cccc(F)c1)C(=O)C1CSC2(C)CCC(=O)N12 (stereo unspecified) class 0

----------
- test: Primary qHTS for delayed death inhibitors of the malarial parasite plastid, 48 hour incubation
- test_parameters: P. falciparum luciferase growth in erythrocytes; series mostly up to 28.7 µM
In all, about 310,000 compounds went through this assay and about 18,000 (5.8%) were called active. Roughly 22% stayed inconclusive and do not appear here. The call rests on the fitted dose curve; in most records, active means well fitted inhibition curve with a large enough effect; inconclusive means small, poorly fitted or top-dose-only effect, or another doubt; inactive means no such curve, though single readings can be large or run the other way. What follows is part of a selection rich in actives, with near analogues and random picks from the rest.
Write down one outcome, taken from yes for active, no for inactive

molecule: CCC(=C/c1sc2ccc3ccccc3c2[n+]1C)/C=C1\Sc2ccc3ccccc3c2N1C
discrete_label: yes
--
molecule: Cc1c(CCC(=O)N[C@@H](CC(C)C)C(=O)O)c(=O)oc2c(C)c3oc4c(c3cc12)CCCC4
discrete_label: yes

Hi, do you know how COc1ccc(OC)c(/C(C)=N\NC(=O)c2cc3cc(Cl)ccc3n2C)c1 came out in this test? no

Could you kindly confirm the outcome this assay logged for O=C(CN1CCOCC1)Nc1c(Cl)cc(Cl)cc1Cl ? no

----------
Below, each entry is listed with its recorded activity change, negative = inhibition.
- test: Primary qHTS for delayed death inhibitors of the malarial parasite plastid, 48 hour incubation; as to activity change, negative = inhibition: % is scaled to controls: 0 for no effect and ±100 for the full control effect
- test_parameters: P. falciparum luciferase growth in erythrocytes; series mostly up to 28.7 µM
Out of some 310,000 compounds screened, about 18,000 (5.8%) were called active. About 22% were inconclusive and are not listed. The entries come from a sample that favours actives as a whole.

Below, 2 molecules whose answers are already recorded.
molecule: O=c1cc(Cl)c2ccccc2n1-c1ccccc1
result: -0.654% [at 0.00184 µM] (inactive)
//
molecule: CCc1cccc(NC(=S)N(CCN(C)C)C2CCN(C(C)C)CC2)c1
result: -29.2% [at 0.00184 µM] (inactive)

Assign activity change, negative = inhibition to the following record: COC(=O)C1(C)CC1(c1ccccc1)c1ccccc1 (stereo unspecified) -9.84% [at 0.00184 µM] (inactive)

Given the molecule O=C(C1CC1)N1N=C(c2ccc(Br)cc2)CC1(O)C(F)(F)F (stereo unspecified) , write its reported activity change, negative = inhibition. -12.6% [at 0.00184 µM] (inactive)

// Input: Cc1ccccc1/C=C\c1nc(O)c([N+](=O)[O-])c(=O)[nH]1 . Output its activity change, negative = inhibition only. -10.1% [at 0.00184 µM] (inactive)

Entry CC(=O)c1nc2ccccc2n1Cc1ccccc1 needs its activity change, negative = inhibition filled in; supply it. 18.9% [at 0.00184 µM] (inactive)

Give me measured activity change, negative = inhibition, please, for this molecule: Cc1ccc(C)c(NC(=O)c2cc(-c3cc(C)cc(C)c3O)n[nH]2)c1 -16% [at 0.00184 µM] (inactive)

Find the measured activity change, negative = inhibition of O=c1onc(-c2c(F)cccc2F)n1-c1ccccc1Cl and report it. 4.36% [at 0.00184 µM] (inactive)

Determine its reported activity change, negative = inhibition: CCOCCCNC(=O)C1(O)c2cc(Br)ccc2NC(=O)N1c1ccc(C)c(C)c1 (stereo unspecified) -7.48% [at 0.00184 µM] (inactive)

Provide measured activity change, negative = inhibition value, entry: Cc1ccc(N2CCN(c3ccc([N+](=O)[O-])cn3)CC2)c(C)c1 -8.92% [at 0.00184 µM] (inactive)

Name the recorded activity change, negative = inhibition of the molecule listed here: COc1cc(CCC(=O)N2CCN(c3ccccc3Cl)CC2)cc(OC)c1OC 1.7% [at 0.00184 µM] (inactive)
